Compiled literature pIC50, tested on MALT1 (Homo sapiens).
Please express pIC50 as -log10 of the molar concentration.

Example compounds with recorded pIC50:
> print(dat)
                                   compound  measurement.type  numeric.readout
1  O=C(Nc1cnc(-n2nccn2)c(Cl)c1)c1cnn(-c2cccc3c2ccc[n+]3[O-])c1C(F)(F)F             pIC50             6.95
2  COC(C)c1c(NC(=O)Nc2cnc(-n3nccn3)c(Cl)c2)cncc1OCC1CC1 (centres unmarked)             pIC50             5.76

Tested on MALT1 (Homo sapiens), the item `O=C(Nc1cnc(-n2nccn2)c(Cl)c1)c1cnn(-c2cccc3c[n+]([O-])ccc23)c1C(F)(F)F` showed pIC50 equal to 7.68

Per the reported MALT1 (Homo sapiens) data, `Cc1cc(Cl)ccc1-n1ncc(C(=O)Nc2cnc(-n3nccn3)c(C#N)c2)c1C(F)(F)F` has pIC50 of 7.30

`O=C(Nc1cnc(-n2nccn2)c(Cl)c1)c1cnn(-c2cnccn2)c1C(F)(F)F` on MALT1 (Homo sapiens) gives pIC50 = 5.59

Reported pIC50 (MALT1 (Homo sapiens)) for entry `Cn1nc(-c2ncc(NC(=O)c3cnn(-c4cccc5c(=O)[nH]ccc45)c3C(F)(F)F)cc2Cl)cc1N` is 7.46

Reading of pIC50 for COC(C)c1c(NC(=O)Nc2cnc(-n3nccn3)c(Cl)c2)cncc1C1COC1 (racemic) with MALT1 (Homo sapiens): 5.91

----------
The compounds below each have a reported IC50 tested on MALT1 (Homo sapiens, UniProt Q9UDY8); the values come from various publications.
Sequence (Q9UDY8 whole entry): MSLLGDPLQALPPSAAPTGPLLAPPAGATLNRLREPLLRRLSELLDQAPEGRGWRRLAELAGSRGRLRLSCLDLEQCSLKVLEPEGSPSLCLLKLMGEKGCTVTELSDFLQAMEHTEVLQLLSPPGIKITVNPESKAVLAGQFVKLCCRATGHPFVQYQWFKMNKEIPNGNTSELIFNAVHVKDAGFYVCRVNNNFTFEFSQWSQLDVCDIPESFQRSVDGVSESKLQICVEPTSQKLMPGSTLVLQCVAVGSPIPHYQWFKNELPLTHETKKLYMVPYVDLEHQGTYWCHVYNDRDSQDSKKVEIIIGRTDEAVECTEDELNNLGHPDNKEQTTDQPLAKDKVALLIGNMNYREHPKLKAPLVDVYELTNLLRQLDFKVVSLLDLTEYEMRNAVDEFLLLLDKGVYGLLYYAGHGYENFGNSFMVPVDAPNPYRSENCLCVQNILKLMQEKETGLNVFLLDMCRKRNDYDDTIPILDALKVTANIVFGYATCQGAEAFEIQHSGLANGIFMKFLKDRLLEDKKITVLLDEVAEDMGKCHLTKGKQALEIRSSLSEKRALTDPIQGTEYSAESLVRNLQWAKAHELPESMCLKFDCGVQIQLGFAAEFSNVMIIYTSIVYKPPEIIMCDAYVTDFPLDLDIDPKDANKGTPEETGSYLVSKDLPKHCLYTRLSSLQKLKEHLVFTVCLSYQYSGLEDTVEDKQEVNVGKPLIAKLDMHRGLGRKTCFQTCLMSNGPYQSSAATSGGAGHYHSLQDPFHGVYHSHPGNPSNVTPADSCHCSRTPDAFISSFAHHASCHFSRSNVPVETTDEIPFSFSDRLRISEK
State the answer as a number, implicitly in nM.

Please review the following examples before continuing.
> print(dat)
                           structure.string  units.label  numeric.readout
1  O=C(Nc1ccc(-n2nccn2)c(Cl)c1)c1cnn(-c2cncc3ccccc23)c1C(F)(F)F           nM               20
2  CN1CCCc2c1cccc2-n1ncc(C(=O)Nc2cnc(-n3nccn3)c(C#N)c2)c1C(F)(F)F           nM              372
3  N#Cc1cc(NC(=O)c2cnn(-c3ncc(Br)cc3Cl)c2C(F)(F)F)cnc1-n1nccn1           nM              708

`N#Cc1cnccc1-n1ncc(C(=O)Nc2cnc(-n3nccn3)c(C#N)c2)c1C(F)(F)F` tested on MALT1 (Homo sapiens, UniProt Q9UDY8) gave IC50: 479

Measured IC50 for this entry `CS(C)(=O)=Nc1ncc(NC(=O)c2cnn(-c3ccc(F)c4nccn34)c2C(F)(F)F)cc1C(F)(F)F` on MALT1 (Homo sapiens, UniProt Q9UDY8): 830

Form field, IC50 with MALT1 (Homo sapiens, UniProt Q9UDY8), item `Cc1cc(F)c(N)nc1-n1ncc(C(=O)Nc2cc(C#N)c(-n3nccn3)nc2C)c1C(F)(F)F` : 339

IC50 of `O=C(Nc1cnc(-n2nccn2)c(Cl)c1)c1cnn(-c2ccc(F)cn2)c1C(F)(F)F` , assay on MALT1 (Homo sapiens, UniProt Q9UDY8), is 912

Measured IC50 for this entry `O=C(Nc1cncc(C(F)(F)F)c1)c1cnn(-c2cccc3ccccc23)c1C(F)(F)F` on MALT1 (Homo sapiens, UniProt Q9UDY8): 200

----------
Below are IC50 measurements against MALT1 (Homo sapiens, UniProt Q9UDY8) drawn from the literature.
Please give a number only; it is taken to be in nM.

Past entries and their recorded results:
> print(dat)
                                   compound  units.label  numeric.readout
1  COc1nccc(-n2ncc(C(=O)Nc3cnc(-n4nccn4)c(C#N)c3)c2C(F)(F)F)c1Cl           nM              589
2  CO[C@H](C)c1ncc(NC(=O)c2cnn(-c3ccc(F)c4nccn34)c2C(F)(F)F)cc1Cl (single isomer, unassigned)           nM             2820

Kindly consider the entry below.
Lab note: compound [2H]C([2H])([2H])O[C@H](C)c1c(NC(=O)Nc2cnc(-n3nccn3)c(C(F)(F)F)c2)cncc1OC (single isomer, unassigned) tested on MALT1 (Homo sapiens, UniProt Q9UDY8); recorded IC50 was 50

----------
pIC50: −log10 of the molar value.
Let's look at some pIC50 data for MALT1 (Homo sapiens, UniProt Q9UDY8) that I collected from the literature.
Kind request: treat 7 as inclusive, so pIC50 at 7 or higher is Yes, anything lower is No.

Previously resolved entries follow.
> print(dat)
                                   compound                        assayed.target  class.label
1  CCOC(C)c1ncc(-n2ncc(C(=O)Nc3cnc(-n4nccn4)c(Cl)c3)c2C(F)(F)F)c2ccccc12 (stereo not shown)  MALT1 (Homo sapiens, UniProt Q9UDY8)           No
2  CN(C)c1ccc(-c2nsc(C(=O)Nc3ccnc(C(F)(F)F)c3)c2C2CC2)cc1  MALT1 (Homo sapiens, UniProt Q9UDY8)           No
3  CN1CCCc2cccc(-n3ncc(C(=O)Nc4cnc(-n5nccn5)c(C#N)c4)c3C(F)(F)F)c21  MALT1 (Homo sapiens, UniProt Q9UDY8)           No
4  CO[C@@H](C)c1c(NC(=O)Nc2cnc(OC(F)F)c(Cl)c2)cnc(N)c1Cl (single isomer, unassigned)  MALT1 (Homo sapiens, UniProt Q9UDY8)           No
5  Nc1cnn(-c2ncc(NC(=O)c3cnn(-c4cccc5c(=O)[nH]ccc45)c3C(F)(F)F)cc2Cl)n1  MALT1 (Homo sapiens, UniProt Q9UDY8)          Yes
6  COC(C)c1c(Br)cncc1NC(=O)Nc1cnc(-n2nccn2)c(Cl)c1 (single isomer, unassigned)  MALT1 (Homo sapiens, UniProt Q9UDY8)           No
7  Cc1cc(N)ncc1-n1ncc(C(=O)Nc2cnc(-n3nccn3)c(C#N)c2)c1C(F)(F)F  MALT1 (Homo sapiens, UniProt Q9UDY8)           No
8  N#Cc1cc(NC(=O)c2cnn(-c3nccc(Cl)c3Cl)c2C(F)(F)F)cnc1-n1nccn1  MALT1 (Homo sapiens, UniProt Q9UDY8)           No

Query: Please tell me: is the compound `CC(=O)N1CCC(C(=O)N(C)[C@@H](c2ccc(Nc3cnn(-c4cccc(C#N)c4)c3C(F)(F)F)cc2)C(F)(F)F)CC1` at or over 7 in terms of pIC50?
Result: Yes

Query: Exam item: decide whether the reported pIC50 for `N#Cc1ncc(NC(=O)c2cnn(-c3cncc4ccccc34)c2C(F)(F)F)cc1F` is at least 7.
Result: No

Query: Form field: pIC50 at least 7? Entry: `O=C(Nc1cnc(-n2nccn2)c(Cl)c1)c1cnn(-c2cc[n+]([O-])c3ccccc23)c1C(F)(F)F`
Result: Yes

Query: Please check the record `N#Cc1cncc(NC(=O)c2cnn(-c3cccc4c(=O)[nH]ccc34)c2C(F)(F)F)c1` and state if its pIC50 is at or above 7.
Result: No

Query: Identify whether the reported pIC50 of the following compound is 7 or greater: `Cc1ccncc1-n1ncc(C(=O)Nc2cnc(-n3nccn3)c(C#N)c2)c1C(F)(F)F`
Result: No

Query: Determine whether measured pIC50 meets or exceeds 7 for `COC(=O)N1CCC(C(=O)N(C)[C@@H](c2ccc(Nc3cnc4nc(Cl)nn4c3[C@H](C)OC)cc2)C(F)(F)F)CC1`
Result: Yes

----------
pIC50 for MALT1 (Homo sapiens) - collated from the literature.
pIC50: −log10 of the molar value.
Decide by pIC50: equal to or exceeding 7 means Criterion met, less means Criterion not met.

Solved entries:
> print(dat)
                           structure.string        class.label
1  N#Cc1cc(NC(=O)c2cnn(-c3ccc(F)c(N)n3)c2C(F)(F)F)cnc1-n1nccn1      Criterion met
2  N#Cc1cc(-n2ncc(C(=O)Nc3cnc(-n4nccn4)c(Cl)c3)c2C(F)(F)F)ccc1F  Criterion not met
3  N#Cc1cc(NC(=O)c2cnn(-c3cccc4nccn34)c2C(F)(F)F)cnc1-n1nccn1      Criterion met
4  Cn1nc(-c2ccc(F)c3ncsc23)c(C(F)(F)F)c1C(=O)Nc1ccnc(C(F)(F)F)c1  Criterion not met
5  CN1CCc2ccc(NC(=O)c3cnn(-c4cccc5ncccc45)c3C(F)(F)F)cc2C1=O  Criterion not met
6  O=C(Nc1cnc(-n2nnc3cnccc32)c(Cl)c1)c1cnn(-c2cccc3ncccc23)c1C(F)(F)F  Criterion not met
7  O=C(Nc1cnc(-n2nccn2)c(Cl)c1)c1cnn(-c2cncc3ccccc23)c1  Criterion not met
8  O=C1COc2ccc(NC(=O)c3cnn(-c4cccc5ncccc45)c3C(F)(F)F)cc2N1  Criterion not met

Query: Could you please find out whether `Nc1ncc(-n2ncc(C(=O)Nc3cnc(-n4nccn4)c(Cl)c3)c2C(F)(F)F)c2cccc(F)c12` has pIC50 that meets 7 or exceeds it?
Result: Criterion met

Query: Assess whether reported pIC50 for `O=C(Nc1ccc(-n2nccn2)c(Cl)c1)c1cnn(-c2cccc3ccncc23)c1C(F)(F)F` sits at 7 or higher.
Result: Criterion not met
